study system: T1, IL-18 binding protein (IL-18BP) (UniProt O95998 31-194)
T1 sequence (looked up): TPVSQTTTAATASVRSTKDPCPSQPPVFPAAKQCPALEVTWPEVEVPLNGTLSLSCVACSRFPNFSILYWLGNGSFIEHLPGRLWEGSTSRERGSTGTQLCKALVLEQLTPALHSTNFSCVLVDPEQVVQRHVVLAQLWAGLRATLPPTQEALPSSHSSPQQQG
test details: cell-based or functional assay
quantity kind: Ratio (-BP/+BP), DF-25000007

binder | quantity kind | value reported
IL-18 variant G3P, E6G, D54P, S55W, N91E, R104K (ligand) YFPKLGSKLSVIRNLNDQVLFIDQGNRPLFEDMTDSDMRDNAPRTIFIISMYKPWQPRGMAVTISVKSEKISTLSSENKIISFKEMNPPDEIKDTKSDIIFFQKSVPGHDNKMQFESSSYEGYFLASEKERDLFKLILKKEDELGDRSIMFTVQNED | Ratio (-BP/+BP), DF-25000007 | 0.92
IL-18 variant G3Y, E6S, K53S, D54W, S55L, N91I (ligand) YFYKLSSKLSVIRNLNDQVLFIDQGNRPLFEDMTDSDMRDNAPRTIFIISMYSWLQPRGMAVTISVKSEKISTLSSENKIISFKEMNPPDIIKDTKSDIIFFQRSVPGHDNKMQFESSSYEGYFLASEKERDLFKLILKKEDELGDRSIMFTVQNED | Ratio (-BP/+BP), DF-25000007 | 1.22
IL-18 variant G3H, E6Q, K53N, D54S, S55P, T63A, N91I, R104S (ligand) YFHKLQSKLSVIRNLNDQVLFIDQGNRPLFEDMTDSDMRDNAPRTIFIISMYNSPQPRGMAVAISVKSEKISTLSSENKIISFKEMNPPDIIKDTKSDIIFFQSSVPGHDNKMQFESSSYEGYFLASEKERDLFKLILKKEDELGDRSIMFTVQNED | Ratio (-BP/+BP), DF-25000007 | 0.91
IL-18 variant G3S, E6H, K53Y, D54P, S55Y, T63S, N91A, R104S (ligand) YFSKLHSKLSVIRNLNDQVLFIDQGNRPLFEDMTDSDMRDNAPRTIFIISMYYPYQPRGMAVSISVKSEKISTLSSENKIISFKEMNPPDAIKDTKSDIIFFQSSVPGHDNKMQFESSSYEGYFLASEKERDLFKLILKKEDELGDRSIMFTVQNED | Ratio (-BP/+BP), DF-25000007 | 0.95
IL-18 variant G3Q, E6N (ligand) YFQKLNSKLSVIRNLNDQVLFIDQGNRPLFEDMTDSDMRDNAPRTIFIISMYKDSQPRGMAVTISVKSEKISTLSSENKIISFKEMNPPDNIKDTKSDIIFFQRSVPGHDNKMQFESSSYEGYFLASEKERDLFKLILKKEDELGDRSIMFTVQNED | Ratio (-BP/+BP), DF-25000007 | 2.2
IL-18 variant G3Q, E6S, S55V, T63A, N91T (ligand) YFQKLSSKLSVIRNLNDQVLFIDQGNRPLFEDMTDSDMRDNAPRTIFIISMYKDVQPRGMAVAISVKSEKISTLSSENKIISFKEMNPPDTIKDTKSDIIFFQRSVPGHDNKMQFESSSYEGYFLASEKERDLFKLILKKEDELGDRSIMFTVQNED | Ratio (-BP/+BP), DF-25000007 | 10.7
IL-18 variant G3P, E6K, D54R, S55P, T63A, N91V (ligand) YFPKLKSKLSVIRNLNDQVLFIDQGNRPLFEDMTDSDMRDNAPRTIFIISMYKRPQPRGMAVAISVKSEKISTLSSENKIISFKEMNPPDVIKDTKSDIIFFQRSVPGHDNKMQFESSSYEGYFLASEKERDLFKLILKKEDELGDRSIMFTVQNED | Ratio (-BP/+BP), DF-25000007 | 0.79
IL-18 variant G3N, E6S, K53Q, D54W, S55R, N91T, R104T (ligand) YFNKLSSKLSVIRNLNDQVLFIDQGNRPLFEDMTDSDMRDNAPRTIFIISMYQWRQPRGMAVTISVKSEKISTLSSENKIISFKEMNPPDTIKDTKSDIIFFQTSVPGHDNKMQFESSSYEGYFLASEKERDLFKLILKKEDELGDRSIMFTVQNED | Ratio (-BP/+BP), DF-25000007 | 1.02
IL-18 variant G3L, E6Q, T63H, N91M, R104H (ligand) YFLKLQSKLSVIRNLNDQVLFIDQGNRPLFEDMTDSDMRDNAPRTIFIISMYKDSQPRGMAVHISVKSEKISTLSSENKIISFKEMNPPDMIKDTKSDIIFFQHSVPGHDNKMQFESSSYEGYFLASEKERDLFKLILKKEDELGDRSIMFTVQNED | Ratio (-BP/+BP), DF-25000007 | 1.47
IL-18 variant G3L, E6Y, D54T, T63S, N91Y, R104Q (ligand) YFLKLYSKLSVIRNLNDQVLFIDQGNRPLFEDMTDSDMRDNAPRTIFIISMYKTSQPRGMAVSISVKSEKISTLSSENKIISFKEMNPPDYIKDTKSDIIFFQQSVPGHDNKMQFESSSYEGYFLASEKERDLFKLILKKEDELGDRSIMFTVQNED | Ratio (-BP/+BP), DF-25000007 | 1.17
IL-18 variant G3D, E6G, K53G, D54A, T63S, N91Y, R104Q (ligand) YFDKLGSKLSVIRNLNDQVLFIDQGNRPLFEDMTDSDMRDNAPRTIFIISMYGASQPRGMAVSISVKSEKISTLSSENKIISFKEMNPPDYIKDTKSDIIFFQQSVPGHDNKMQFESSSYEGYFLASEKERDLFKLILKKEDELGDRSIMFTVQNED | Ratio (-BP/+BP), DF-25000007 | 1.14
IL-18 variant G3V, E6Q, T34P, D54M, S55F, N91R, R104H (ligand) YFVKLQSKLSVIRNLNDQVLFIDQGNRPLFEDMPDSDMRDNAPRTIFIISMYKMFQPRGMAVTISVKSEKISTLSSENKIISFKEMNPPDRIKDTKSDIIFFQHSVPGHDNKMQFESSSYEGYFLASEKERDLFKLILKKEDELGDRSIMFTVQNED | Ratio (-BP/+BP), DF-25000007 | 1.77
IL-18 variant G3R, E6D, D54A, S55Q, T63S, N91K, R104P (ligand) YFRKLDSKLSVIRNLNDQVLFIDQGNRPLFEDMTDSDMRDNAPRTIFIISMYKAQQPRGMAVSISVKSEKISTLSSENKIISFKEMNPPDKIKDTKSDIIFFQPSVPGHDNKMQFESSSYEGYFLASEKERDLFKLILKKEDELGDRSIMFTVQNED | Ratio (-BP/+BP), DF-25000007 | 0.96
